All values here come from patent US20260049072A1.

molecular target: RAS G12V (Homo sapiens, UniProt P01116, G12V); construct: host or cells: PA-TU-8902 human pancreatic cancer cells; assay: RAS G12V degradation activity, Cell ELISA, PA-TU-8902; format: cell-based; conditions: PA-TU-8902 cells, 24 hours, 100% = Example compound 17 at 1 μM; read-out: DC50 (RAS G12V 50% degradation value)
Sequence (P01116 1-188 isoform P01116-2 G12V): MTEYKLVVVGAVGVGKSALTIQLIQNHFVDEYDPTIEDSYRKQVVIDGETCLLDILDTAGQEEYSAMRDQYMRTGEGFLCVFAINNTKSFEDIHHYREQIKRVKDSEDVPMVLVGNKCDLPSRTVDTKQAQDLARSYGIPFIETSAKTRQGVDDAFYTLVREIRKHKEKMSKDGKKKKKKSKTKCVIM
OBSERVABLE: DC50 (nM)

MOLECULE: CO[C@@H](C)COc1nc(NC2CN(C(=S)N3CC(CN(C)C)C3)C2)c2cc(C3CC3)c(-c3c(C)c(F)cc4[nH]ncc34)c(OCc3ccc(-c4cn([C@H](C(=O)N5C[C@H](O)C[C@H]5C(=O)N[C@@H](CO)c5ccc(-n6cncn6)cc5)C(C)C)nn4)cc3)c2n1 (atropisomer, axis not shown) [Example 26]
OUTPUT UNIT: nM
DC50: 19
//
MOLECULE: CO[C@@H](C)COc1nc(NC2CN(C(=O)O[C@H]3C[C@@H](N(C)C)C3)C2)c2cc(C3CC3)c(-c3c(C)c(F)cc4[nH]ncc34)c(OCc3ccc(-c4cn([C@H](C(=O)N5C[C@H](O)C[C@H]5C(=O)N[C@@H](CO)c5ccc(N6CCOC6=O)cc5)C(C)C)nn4)cc3)c2n1 (atropisomer, axis not shown) [Example 4]
OUTPUT UNIT: nM
DC50: 45
//
MOLECULE: CO[C@@H](C)COc1nc(NC2CN(C(=O)O[C@H]3C[C@@H](N(C)C)C3)C2)c2cc(C3CC3)c(-c3c(C)c(F)cc4[nH]ncc34)c(OCc3ccc(-c4cn([C@H](C(=O)N5C[C@H](O)C[C@H]5C(=O)N[C@@H](CO)c5ccc(-n6cncn6)cc5)C(C)C)nn4)cc3)c2n1 (atropisomer, axis not shown; (M)) [Example 2]
OUTPUT UNIT: nM
DC50: 18
//
MOLECULE: CNCCNC(=O)N1CC(Oc2nc(OC[C@H](C)OC)nc3c(OCc4ccc(-c5cn([C@H](C(=O)N6C[C@H](O)C[C@H]6C(=O)N[C@@H](CO)c6ccc(-c7scnc7C)cc6)C(C)C)nn5)cc4)c(-c4c(C)c(F)cc5[nH]ncc45)c(C4CC4)cc23)C1 (atropisomer, axis not shown) [Example 18]
OUTPUT UNIT: nM
DC50: 69
//
MOLECULE: CO[C@@H](C)COc1nc(NC2CN(C(=O)O[C@H]3C[C@@H](N(C)C)C3)C2)c2cc(C3CC3)c(-c3c(C)c(F)cc4[nH]ncc34)c(OCc3ccc(-c4cn([C@H](C(=O)N5C[C@H](O)C[C@H]5C(=O)N[C@@H](CO)c5ccc(-c6scnc6C)cc5)C(C)C)nn4)cc3)c2n1 (atropisomer, axis not shown; (M)) [Example 11]
OUTPUT UNIT: nM
DC50: 13
//
MOLECULE: CO[C@@H](C)COc1cc(OC2CN(C(=O)C3CN(C)C3)C2)c2cc(C3CC3)c(-c3c(C)c(F)cc4[nH]ncc34)c(OCc3ccc(-c4cn([C@H](C(=O)N5C[C@H](O)C[C@H]5C(=O)N[C@@H](CO)c5ccc(-n6cncn6)cc5)C(C)C)nn4)cc3)c2n1 (atropisomer, axis not shown) [Example 42]
OUTPUT UNIT: nM
DC50: 30

A. Cc1ncsc1-c1ccc([C@H](CO)NC(=O)[C@@H]2C[C@@H](O)CN2C(=O)[C@H](C(C)C)n2cc(-c3ccc(COc4c(-c5c(C)c(F)cc6[nH]ncc56)c(C5CC5)cc5c(NCc6cccnc6)nc(OC6CCOCC6)nc45)cc3)nn2)cc1 [Example 29]
B. Cc1ncsc1-c1ccc([C@H](CO)NC(=O)[C@@H]2C[C@@H](O)CN2C(=O)[C@H](C(C)C)n2cc(-c3ccc(COc4c(-c5c(C)c(F)cc6[nH]ncc56)c(C5CC5)cc5c(NC6CN(c7ncccn7)C6)nc(OC6CCOCC6)nc45)cc3)nn2)cc1 [Example 15]
// query Please indicate which entry, A or B , has the lower recorded DC50 value. Answer with the label corresponding to your selection.
// result A
(A: 8 nM, B: 89 nM)
